Biological target: Cytochrome P450 1A2 (Homo sapiens)
Test: p450-cyp1a2 (AID 410)
Settings: recombinant CYP1A2, luciferin-ME demethylation, luminescence; series mostly up to 11.4 µM
Records with an inconclusive call do not appear. The source made the active and inactive calls. Calls follow the shape of the full dose curve.
Outcomes you can answer with include only these: active, inactive

Just curious, what result did `CSc1cccc(NC(=O)OC2CCCCCCCCCCC2)c1` get here?
active

Next molecule: `c1cc(CSSCc2ccncc2)ccn1`
active

Next molecule: `Oc1ccccc1CNCc1ccccc1O`
inactive

Next molecule: `COC(=O)[C@H](N)Cc1ccc(Cl)cc1`
active

Next molecule: `N#C/C(=C\Nc1ccccn1)C(=O)c1ccco1`
inactive

Next molecule: `NC(N)=NC(N)=Nc1ccc(S(N)(=O)=O)cc1`
inactive

Next molecule: `Cn1ncc2c(Cl)ncnc21`
inactive

All values here come from PubChem BioAssay (NCATS).
